Answer each item with its documented Emax at 100 µM.
Test system: human peripheral blood mononuclear cells (PBMC)
Test: PBMC assay of interferon alpha release (masking)
Assay type: cell-based
Conditions: Homo sapiens, PBMC; Table 10; 100 μM; 24 hours exposure; read-out: Amount of INFa relative to that induced by isatoribine at 100 μM
Field format: number, assumed %, no unit text.

[Q] Return reported Emax at 100 µM; argument: C=CCn1c(=O)n([C@@H]2O[C@H](CO)[C@@H](O)[C@H]2O)c2nc(N)[nH]c(=O)c21 [Compound 17]
[A] 50

[Q] # query: Emax at 100 µM of entry C=CCn1c(=O)n([C@@H]2O[C@H](CO)[C@@H](O)[C@H]2O)c2nc(N)nc(OCC)c21 [Compound 45]
[A] 0

[Q] Fill in the blank: the reported Emax at 100 µM of C=CCn1c(=O)n([C@@H]2O[C@H](CO)[C@@H](O)[C@H]2O)c2nc(N)ncc21 [Compound 43] is ____.
[A] 0

[Q] Look at this compound and give its reported Emax at 100 µM. C=CCn1c(=O)n([C@@H]2O[C@H](COC(=O)[C@@H](N)C(C)C)[C@@H](O)[C@H]2O)c2nc(N)[nH]c(=O)c21 [Compound 68]
[A] 0

The values you see were collected from patent US7858637B2.
